Origin of measurements: patent US20100240653A1

# pKi per entry
molecular target: Histamine H3-receptor (Rattus norvegicus, UniProt Q9QYN8); test: [3H]N-alpha-methyl-histamine competitive histamine H3-receptor binding assay (rat brain cortex membranes); conditions: whole rat brain cortex membranes, [3H]-N-α-methyl-histamine 1 nM
Sequence (Q9QYN8 1-397 isoform Q9QYN8-3): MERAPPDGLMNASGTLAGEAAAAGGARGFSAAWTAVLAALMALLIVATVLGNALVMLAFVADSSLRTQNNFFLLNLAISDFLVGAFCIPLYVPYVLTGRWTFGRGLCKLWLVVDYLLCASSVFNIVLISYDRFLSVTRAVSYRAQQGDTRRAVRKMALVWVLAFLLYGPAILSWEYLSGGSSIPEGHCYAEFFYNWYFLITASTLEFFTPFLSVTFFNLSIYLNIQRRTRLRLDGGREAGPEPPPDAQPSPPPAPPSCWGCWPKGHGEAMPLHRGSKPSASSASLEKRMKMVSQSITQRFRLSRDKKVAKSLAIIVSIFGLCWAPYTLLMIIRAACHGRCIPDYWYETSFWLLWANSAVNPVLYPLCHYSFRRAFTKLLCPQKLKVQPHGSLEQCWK
Recall that pKi is obtained by taking minus log10 of the concentration measured in molar.

- compound: "COCCCS(=O)(=O)c1ccc(-c2ccc(CCN3CCC[C@H]3C)cc2)cc1 [Cmpd 8]"
  pKi: 8.82
- compound: "C[C@@H]1CCCN1CCc1ccc(-c2ccc(S(C)(=O)=O)cc2)cc1 [Cmpd 1]"
  pKi: 8.62
- compound: "C[C@@H]1CCCN1CCc1ccc(-c2cccc(S(=O)(=O)CCO)c2)cc1 [Cmpd 17]"
  pKi: 7.80
- compound: "C[C@@H]1CCCN1CCc1ccc(-c2ccc(S(=O)(=O)Cc3ccccc3)cc2)cc1 [Cmpd 6]"
  pKi: 8.96

query: Provide measured pKi value, entry: COCCS(=O)(=O)c1ccc(-c2ccc(CCN3CCC[C@H]3C)cc2)cc1 [Cmpd 3]
result: 8.52
